inhibition at 0.5 µM for assorted compounds
Molecular target: Human VEGFR-2 (KDR) (Homo sapiens, UniProt P35968)
Construct: purchased BPS Bioscience 40325
Sequence (P35968 805-1356): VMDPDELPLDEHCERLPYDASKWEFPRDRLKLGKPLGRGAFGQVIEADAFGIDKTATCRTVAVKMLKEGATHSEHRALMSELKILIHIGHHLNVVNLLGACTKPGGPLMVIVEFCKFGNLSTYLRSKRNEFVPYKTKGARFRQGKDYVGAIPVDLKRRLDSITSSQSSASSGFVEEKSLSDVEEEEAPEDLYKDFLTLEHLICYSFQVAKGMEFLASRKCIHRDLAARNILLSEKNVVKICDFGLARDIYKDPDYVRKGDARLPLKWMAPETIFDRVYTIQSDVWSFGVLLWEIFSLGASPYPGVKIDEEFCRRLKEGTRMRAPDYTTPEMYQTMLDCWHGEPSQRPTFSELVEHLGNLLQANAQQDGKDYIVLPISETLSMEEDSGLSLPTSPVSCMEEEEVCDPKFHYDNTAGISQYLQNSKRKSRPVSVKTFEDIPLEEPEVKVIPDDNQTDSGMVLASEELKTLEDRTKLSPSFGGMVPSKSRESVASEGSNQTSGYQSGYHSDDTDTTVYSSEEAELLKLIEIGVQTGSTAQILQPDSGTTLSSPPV
Experiment: In vitro VEGFR2 kinase inhibition assay
Format: biochemical
Conditions: read-out: VEGFR2 Kinase Inhibitory Activity % of Inhibition (500 nM)
Report the figure in % without appending any unit label.

1. COc1cccc(NC(=S)NN=Cc2ccc(Oc3ncnc4cc(OC)c(OC)cc34)cc2)c1 [TSC8] = 0
2. COc1cc2ncnc(Oc3ccc(C=NNC(=S)NC(C)C)cc3)c2cc1OC [TSC9] = 70.5

Challenge: Check the records and state inhibition at 0.5 µM for C=CCNC(=S)NN=Cc1ccc(Oc2ncnc3cc(OC)c(OC)cc23)cc1 [TSC1]
Response given: 52.7

Challenge: Check the records and state inhibition at 0.5 µM for COc1cc2ncnc(Oc3ccc(C=NNC(=S)Nc4ccc(F)cc4)cc3)c2cc1OC [TSC3]
Response given: 62.1

Challenge: Check the records and state inhibition at 0.5 µM for COc1cc2ncnc(Oc3ccc(/C=N/NC(=S)Nc4cccc(Cl)c4Cl)cc3)c2cc1OC [TSC10]
Response given: 89.1

Challenge: Check the records and state inhibition at 0.5 µM for COc1cc2ncnc(Oc3ccc(C=NNC(=S)Nc4ccc(F)c(F)c4)cc3)c2cc1OC [TSC7]
Response given: 21.1

* * *

System: A375 cells
Assay: Alamar Blue cytotoxicity on A375 cells
Assay type: cell-based, human
Settings: Homo sapiens, A-375, 48 h, read-out: IC50 A375
MEASUREMENT KIND: IC50

Challenge: Check the records and state IC50 for CNC(=O)c1cc(Oc2ccc(NC(=O)Nc3ccc(Cl)c(C(F)(F)F)c3)cc2)ccn1 [Sorafenib, sorafenib, reference compound]
Response given: 5.26 µM

* * *

Target: Human VEGFR-2 (KDR) (Homo sapiens, UniProt P35968)
Assay: In vitro VEGFR2 kinase inhibition assay
Conditions: isolated kinase domain, 45 min at 30 °C
Note to self: IC50 under 300 nM means met, ties and anything higher get not met.

Example entries begin here.
1) COc1cc2ncnc(Oc3ccc(C=NNC(=S)NC(C)C)cc3)c2cc1OC = not met
2) COc1cc2ncnc(Oc3ccc(C=NNC(=S)Nc4ccccc4)cc3)c2cc1OC = not met

Challenge: Problem: For the molecule COc1cc2ncnc(Oc3ccc(C=NNC(=S)Nc4ccc(F)cc4)cc3)c2cc1OC , is IC50 under 300 nM?
Response given: met

Challenge: Problem: For the molecule COc1cc2ncnc(Oc3ccc(/C=N/NC(=S)Nc4cccc(C(F)(F)F)c4)cc3)c2cc1OC , is IC50 under 300 nM?
Response given: not met

Challenge: Problem: For the molecule C=CCNC(=S)NN=Cc1ccc(Oc2ncnc3cc(OC)c(OC)cc23)cc1 , is IC50 under 300 nM?
Response given: not met

Challenge: Problem: For the molecule COc1cc2ncnc(Oc3ccc(/C=N/NC(=S)Nc4cccc(Cl)c4Cl)cc3)c2cc1OC , is IC50 under 300 nM?
Response given: met

* * *

inhibition at 0.5 µM for assorted compounds
Molecular target: Human VEGFR-2 (KDR) (Homo sapiens)
Construct: purchased BPS Bioscience 40325
Assay: In vitro VEGFR2 kinase inhibition assay
Format: biochemical
Details: read-out: VEGFR2 Kinase Inhibitory Activity % of Inhibition (500 nM)
Report the figure in % without appending any unit label.

Reference set (3 entries):
1) COc1cc2ncnc(Oc3ccc(/C=N/NC(=S)Nc4cccc(C(F)(F)F)c4)cc3)c2cc1OC = 59.5
2) COc1cc2ncnc(Oc3ccc(C=NNC(=S)Nc4ccc(Cl)c(C(F)(F)F)c4)cc3)c2cc1OC = 0
3) COc1cc2ncnc(Oc3ccc(C=NNC(=S)Nc4ccc(Cl)cc4)cc3)c2cc1OC = 40.5

Challenge: Check the records and state inhibition at 0.5 µM for COc1cc2ncnc(Oc3ccc(C=NNC(=S)Nc4ccccc4)cc3)c2cc1OC
Response given: 71

* * *

Tested on: HaCaT cells
Assay: Alamar Blue cytotoxicity on HaCaT cells
Assay type: cell-based
Conditions: Homo sapiens, 48 h exposure, Alamar Blue, read-out: IC50 HaCaT
pIC50 for assorted compounds
# pIC50: negative log10 of molar concentration; output just the value

Reference set (3 entries):
1) COc1cc2ncnc(Oc3ccc(C=NNC(=S)Nc4ccc(F)cc4)cc3)c2cc1OC [TSC3] = 4.54
2) COc1cc2ncnc(Oc3ccc(C=NNC(=S)Nc4ccc(Cl)c(C(F)(F)F)c4)cc3)c2cc1OC [TSC6] = 4.64
3) COc1cc2ncnc(Oc3ccc(C=NNC(=S)NC(C)C)cc3)c2cc1OC [TSC9] = 4.06

Challenge: Check the records and state pIC50 for COc1cc2ncnc(Oc3ccc(/C=N/NC(=S)Nc4cccc(Cl)c4Cl)cc3)c2cc1OC [TSC10]
Response given: 4.28

Challenge: Check the records and state pIC50 for COc1cc2ncnc(Oc3ccc(C=NNC(=S)Nc4ccc(Cl)cc4)cc3)c2cc1OC [TSC4]
Response given: 4.80

Challenge: Check the records and state pIC50 for COc1cc2ncnc(Oc3ccc(C=NNC(=S)Nc4ccccc4)cc3)c2cc1OC [TSC5]
Response given: 4.78

Challenge: Check the records and state pIC50 for COc1cc2ncnc(Oc3ccc(C=NNC(=S)Nc4ccc(F)c(F)c4)cc3)c2cc1OC [TSC7]
Response given: 4.27

* * *

Test system: HaCaT cells
Assay: Alamar Blue cytotoxicity on HaCaT cells
Type: cell-based
Settings: Homo sapiens, 48 h exposure, Alamar Blue, read-out: IC50 HaCaT
IC50 for assorted molecules

1) COc1cc2ncnc(Oc3ccc(/C=N/NC(=S)Nc4cccc(C(F)(F)F)c4)cc3)c2cc1OC [TSC2] = > 100 µM
2) C=CCNC(=S)NN=Cc1ccc(Oc2ncnc3cc(OC)c(OC)cc23)cc1 [TSC1] = ~100 µM

# context switch: different molecule, same IC50
Challenge: Check the records and state IC50 for COc1cccc(NC(=S)NN=Cc2ccc(Oc3ncnc4cc(OC)c(OC)cc34)cc2)c1 [TSC8]
Response given: > 100 µM
